Target: Signal peptidase I (Escherichia coli K-12) (UniProt P00803)
Sequence (P00803 whole entry): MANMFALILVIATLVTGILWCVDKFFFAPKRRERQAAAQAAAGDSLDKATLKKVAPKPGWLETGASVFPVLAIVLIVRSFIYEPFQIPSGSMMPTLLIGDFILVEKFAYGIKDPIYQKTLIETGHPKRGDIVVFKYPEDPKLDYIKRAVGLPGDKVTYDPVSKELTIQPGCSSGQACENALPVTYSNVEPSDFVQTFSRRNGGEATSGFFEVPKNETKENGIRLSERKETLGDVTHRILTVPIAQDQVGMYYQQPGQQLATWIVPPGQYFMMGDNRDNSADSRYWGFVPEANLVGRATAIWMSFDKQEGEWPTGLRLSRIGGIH
Assay: Inhibition of Escherichia coli type 1 signal peptidase lepB assessed as residual activity at 0.0781 uM preincubated for 10 mins followed by Dabcyl-VGGTATAYGAFSRPGLE-(EDANS)-OH substrate addition measured after 2 hrs by FRET based assay (reference value: 100%)
QUANTITY_KIND: Activity (%)
Your answer should be a plain number; it is taken to be in %.

Task item: Look up Activity of CCCCCCC#Cc1cncc(C(=O)N[C@@H](CCCN)C(=O)N[C@H](C(=O)N[C@@H](C)C(=O)N[C@H]2Cc3cn(nn3)CCO[C@@H]3C[C@@H]4OB(O[C@@H]4C3)[C@H](C)NC2=O)[C@@H](C)O)c1 and report it.
Reply: 26.8

Task item: Look up Activity of CCCCCCc1ccc(-c2ccc(C(=O)N[C@@H](CCCN)C(=O)N[C@H](C(=O)N[C@@H](C)C(=O)N[C@H]3Cc4cn(nn4)CCN4C[C@@H]5OB(O[C@@H]5C4)[C@H](C)NC3=O)[C@@H](C)O)cc2)cc1 and report it.
Reply: 61.4
